// provenance: patent EP0533056A2

For each record, write down the corresponding % Hemmung der Phospholipase.
# Test system: Phospholipase von Candida albicans
# test_protocol: Inhibition of released exoenzymes (phospholipase) of Candida albicans blastoconidia, egg-yolk agar plate, turbidity halo
# Format: cell-based
# assay_conditions: Konzentration 10 μm/ml; Candida albicans Stamm 200/175, in vitro
Value expressed in %; do not type the unit.

input: # return recorded % Hemmung der Phospholipase for input CCCCCCCCCCCCNCC(O)(COc1ccc(OCCCCCCC)cc1)c1ccccc1 (stereo not drawn) [1.53]
output: 100

input: For CC1(C)CC(NCC(O)(COc2ccc(Oc3ccccc3)cc2)C(C)(C)C)CC(C)(C)N1 (stereo not drawn) [1.31] , write its % Hemmung der Phospholipase.
output: 100

input: Give reported % Hemmung der Phospholipase value for CCCCCCCCCCCCNCC(O)(COc1ccc(Oc2ccccc2)cc1)C(C)(C)C (stereo not drawn) [1.34]
output: 100

input: Output measured % Hemmung der Phospholipase for this item: CCCCCCCCCCCCNCC(O)(COc1ccc(OCCCCCCC)cc1)C(C)(C)C (stereo not drawn) [1.23]
output: 100

input: Kindly indicate its recorded % Hemmung der Phospholipase. Item: CCCCCCCOc1ccc(OCC(O)(CNC(C)C)C(C)(C)C)cc1 (stereo not drawn) [1.24]
output: 100

input: Read off the recorded % Hemmung der Phospholipase for CC(C)NCC(O)(COc1ccc(Cl)cc1Cl)C(C)(C)C (stereo not drawn) [1.7]
output: 20

input: Entry CC(C)(C)CC(C)(C)c1ccc(OCC(O)(CNCc2ccc(Cl)cc2Cl)C(C)(C)C)cc1 (stereo not drawn) [1.48] needs its % Hemmung der Phospholipase filled in; supply it.
output: 100

input: Note % Hemmung der Phospholipase for the compound shown: CCCCCCCOc1ccc(OCC(O)(CNCCC(c2ccccc2)c2ccccc2)C(C)(C)C)cc1 (stereo not drawn) [1.22]
output: 10

input: Return % Hemmung der Phospholipase for the following compound: CCCCNCC(O)(COc1ccc(C(C)(C)C)cc1)c1ccc(-c2ccccc2)cc1 (stereo not drawn) [1.15]
output: 100
